- Procedure details: chemical genetic growth profiling, strain panel (AID 1159580);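 note: tested at 20 µM; growth read once vehicle control cultures reached saturation at 30 °C; 1 = growth at the plate median or of vehicle wells; lower values mean less growth of the strain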
- Protocol conditions: S. cerevisiae deletion strains, growth OD, locus YCL069W, strain vba3, active compounds read low
The campaign covered roughly 5,500 compounds. About 2,000 (36%) were called active. Not shown: some 18% with an inconclusive outcome. This is one part of the list.

Compound	normalized growth
Cn1c(=O)[nH]c(=O)c2[nH]cnc21	0.999
COc1cc(O)c(C(C)=O)c(OC)c1	1
COc1cc(O)c(C)c(O)c1	1.01
CCCCC/C=C\C/C=C\C/C=C\C/C=C\CCCC(=O)O	0.969
Cc1c(N(C)CS(=O)(=O)O)c(=O)n(-c2ccccc2)n1C	1.01
COC(=O)C[C@H]1C(C)(C)[C@@H](OC(C)=O)[C@@H]2CC3C4CC(=O)O[C@@H](c5ccoc5)[C@]4(C)CCC3[C@@]1(C)C2=O (stereo partly specified)	1.01
Fc1ccc(C(c2ccc(F)cc2)N2CCN(C/C=C/c3ccccc3)CC2)cc1	0.18
CC(=O)OCC(=O)[C@@]1(O)CCC2C3CCC4=CC(=O)CC[C@]4(C)[C@@]3(F)[C@@H](O)C[C@@]21C (stereo partly specified)	1.02
CCOC(=O)C1=C(C)NC(C)=C(C(=O)OC)C1c1cccc([N+](=O)[O-])c1 (stereo unspecified)	1.01
COc1c(O)cc(O)cc1O	1
CN1CCN(C(c2ccccc2)c2ccccc2)CC1	0.995

====

- Procedure details: chemical genetic growth profiling, strain panel (AID 1159580);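 note: tested at 20 µM; growth read once vehicle control cultures reached saturation at 30 °C; 1 = growth at the plate median or of vehicle wells; lower values mean less growth of the strain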
- Protocol conditions: S. cerevisiae deletion strains, growth OD, locus YCL011C, strain gbp2, active compounds read low
Hit rate of the full screen: of about 5,500 compounds, about 2,000 (36%) were called active. Inconclusive results (about 18%) are left out. The list shows a part of the results.

Molecule	normalized growth
COc1cc(OC)c2c(c1Cl)OC1(C2=O)C(O)=CC(=O)CC1C (stereo unspecified)	1.02
Cc1c(N(C)CS(=O)(=O)O)c(=O)n(-c2ccccc2)n1C	1.01
COc1c2occc2cc2ccc(=O)oc12	0.88
Cc1cccc(N(C)C(=S)Oc2ccc3ccccc3c2)c1	1
CC(=O)OCC(=O)[C@@]1(O)CCC2C3CCC4=CC(=O)CC[C@]4(C)[C@@]3(F)[C@@H](O)C[C@@]21C (stereo partly specified)	1.02
COC(=O)C1=CO[C@@H](O[C@@H]2O[C@H](CO)[C@@H](O)[C@H](O)[C@H]2O)[C@@H]2[C@@H](C)[C@@H](O)C[C@H]12	0.997
FC(F)(F)COCC(F)(F)F	1.02
O=C1OC(=O)C2C3CCC(O3)C12 (stereo unspecified)	1.01
CC(C)=CCC1=C(O)c2ccccc2C(=O)C1=O	0.795
NCCS	0.982
C[N+]1(C)CCc2cc3c(cc2[C@H]1C1OC(=O)c2c1ccc1c2OCO1)OCO3 (stereo partly specified)	0.999

====

- Procedure details: chemical genetic growth profiling, strain panel (AID 1159580);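 note: tested at 20 µM; growth read once vehicle control cultures reached saturation at 30 °C; 1 = growth at the plate median or of vehicle wells; lower values mean less growth of the strain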
- Protocol conditions: S. cerevisiae deletion strains, growth OD, locus YDL108W, strain KIN28, active compounds read low
The whole screen tested about 5,500 compounds, of which about 2,000 (36%) were called active. Not shown: some 18% with an inconclusive outcome. Some of the results follow.
Quantity: normalized growth

Compound	Quantity	Measured result
O=C(Nc1ccc(OC(F)(F)F)cc1)Nc1cncc(C(F)(F)F)c1	normalized growth	0.988
CC(C)(C)c1cc(C(=O)/C(C#N)=N\Nc2ccc(Cl)cc2)no1	normalized growth	0.962
NNC(=O)COc1ccc(C2SCCS2)cc1	normalized growth	0.97
CCCCCc1ccc(-c2nc(SCC(C)=O)n[nH]2)cc1	normalized growth	0.949
O=C(SCc1c(Cl)cccc1Cl)c1ccc([N+](=O)[O-])o1	normalized growth	0.961
CN(C)c1nc(=S)ss1	normalized growth	0.878
CSc1nc(Sc2n[nH]c(-c3ccccc3)n2)cc(Sc2n[nH]c(-c3ccccc3)n2)n1	normalized growth	1.01
O=S(=O)(Nc1cc(-c2cccs2)nn1-c1ccc(I)cc1)c1cccc(F)c1	normalized growth	0.958
CSC(SC)=C(C#N)C(=O)c1ccccc1Cl	normalized growth	0.927
C(=NC(N=Cc1ccccc1)c1ccccc1)c1ccccc1 (stereo not drawn)	normalized growth	0.976
N#CC(C#N)=NNc1cc(C(F)(F)F)ccc1OCC(F)(F)F	normalized growth	0.911
CCCCCc1ccc(S(=O)(=O)Nc2ncc(C)cc2Br)cc1	normalized growth	0.951
CC(/C=C/c1ccccc1)=N/OC(=O)c1ccccc1Cl	normalized growth	0.982
O=C(c1ccc(Cl)cc1)N1CCN(c2ccc(C(F)(F)F)cn2)CC1	normalized growth	0.979
O=C(N/N=C\c1cc(Cl)cc(Cl)c1O)c1ccccc1Oc1ccccc1	normalized growth	0.958
N#CC(C#N)=NNc1ccc(C(F)(F)F)cc1	normalized growth	0.152
Fc1ccc(Nc2nc(-c3ccc(F)c(F)c3)cs2)c(F)c1	normalized growth	0.132
N#C/C(=N/Nc1ccc(C(F)(F)F)cc1)C(=O)C1CC1	normalized growth	0.937
O=C(NCc1ccc(F)c(Cl)c1)Nc1csc([N+](=O)[O-])c1	normalized growth	0.975
CCOC(=O)C1C(c2ccc(Br)cc2)C(C(=O)OCC)C(O)(C(F)(F)F)NC1(O)C(F)(F)F (stereo not drawn)	normalized growth	1
CN(NC(=S)Nc1cc(Cl)ccc1Cl)c1ccc(C(F)(F)F)cc1[N+](=O)[O-]	normalized growth	0.969
COc1ccc(-c2cc(NS(=O)(=O)c3cccc(F)c3)n(-c3ccc(Cl)c(Cl)c3)n2)cc1	normalized growth	0.975
Cc1nc(C(F)(F)F)ccc1-c1nnc(SC(=O)c2ccc(Cl)cc2)o1	normalized growth	0.882
FC(F)(F)c1ccc(C2Sc3ccccc3N=C3c4ccccc4CC32)cc1 (stereo not drawn)	normalized growth	0.994
Cc1nn(Cc2cccc(C(=O)O/N=C(/N)c3ccc(Cl)cc3)c2)c(C)c1Br	normalized growth	0.972
Oc1ccc(-n2nnnc2SCc2ccc(OC(F)(F)F)cc2)cc1	normalized growth	0.972
N/C(=N/OC(=O)c1ccccc1Cl)c1cccc(CS(=O)(=O)c2ccc(Cl)cc2)c1	normalized growth	0.986
N/C(=N/OC(=O)c1ccccc1Cl)c1ccc2nonc2c1	normalized growth	0.973
O=C(Oc1ccc(C2SCCS2)cc1)c1cccs1	normalized growth	0.996
CC(=O)Oc1ccc2c(=O)c(Oc3ccc(Cl)cc3)c(C)oc2c1	normalized growth	0.958
Cc1ccc(C(=O)Nc2ccc3ccccc3n2)cc1	normalized growth	0.963
CCOC(=O)C(NC(C)=O)(Nc1ccc(F)c(Cl)c1)C(F)(F)F (stereo not drawn)	normalized growth	0.997
CC(Oc1ccc(Cl)cc1Cl)C(=O)NNC(=S)Nc1ccccc1 (stereo not drawn)	normalized growth	0.959
Cc1nc([N+](=O)[O-])cn1CC(=O)c1ccc(Cl)cc1	normalized growth	0.963
O=C1OC(Nc2ccccc2SCc2ccccc2Cl)c2ccccc21 (stereo not drawn)	normalized growth	0.977
Cc1c(Cl)cccc1N=C1SCC(=O)N1Cc1ccco1	normalized growth	0.972
N#C/C(=N/Nc1ccc(Cl)cc1)C(=O)C1CC1	normalized growth	0.86
Cc1nc(C(F)(F)F)ccc1C(=O)Sc1nnc(-c2ccc(C(F)(F)F)nc2C)o1	normalized growth	0.952
CC(NC(=S)Nc1ccc(Oc2ccc(Cl)cc2)cc1)c1ccccc1 (stereo not drawn)	normalized growth	0.965
CC1CCc2c(sc3ncnc(Sc4ccccc4)c23)C1 (stereo not drawn)	normalized growth	0.976
FC(F)(F)c1ccc(NC(=S)Nc2ccc(C(F)(F)F)cc2Cl)c(Cl)c1	normalized growth	0.946
N#C/C(=C\c1ccc(C(F)(F)F)cc1)c1ccc(O)cc1	normalized growth	0.972
N#Cc1c(N)sc2c1CCc1ccccc1-2	normalized growth	0.898
